assay: in vitro; details: rat, microsomes, pH 7.4, Clint
endpoint-label: CLint scaled at 0.5 µM (mL/min/kg)

// below: answered compounds
{"compound": "[2H]c1c([2H])c(C2([2H])CCCNC2[2H])c([2H])c([2H])c1-n1cc2cccc(C(N)=O)c2n1 (centres unmarked) [Example 9]", "CLint scaled at 0.5 µM [mL/min/kg]": 18.8}
{"compound": "[2H]C1NC([2H])C([2H])(c2ccc(-n3cc4cccc(C(N)=O)c4n3)cc2)C([2H])C1[2H] (centres unmarked) [Example 5]", "CLint scaled at 0.5 µM [mL/min/kg]": 17.2}
{"compound": "[2H]C1([2H])NC([2H])([2H])C([2H])(c2ccc(-n3cc4cccc(C(N)=O)c4n3)cc2)C([2H])([2H])C1([2H])[2H] (racemic) [Example 3]", "CLint scaled at 0.5 µM [mL/min/kg]": 22.7}
{"compound": "[2H]c1c([2H])c(-n2cc3cccc(C(N)=O)c3n2)c([2H])c([2H])c1C1C([2H])NC([2H])C([2H])C1[2H] (centres unmarked) [Example 6]", "CLint scaled at 0.5 µM [mL/min/kg]": 18.8}
{"compound": "[2H]c1c([2H])c(C2([2H])C([2H])([2H])NC([2H])([2H])C([2H])([2H])C2([2H])[2H])c([2H])c([2H])c1-n1cc2cccc(C(N)=O)c2n1 (centres unmarked) [Example 2]", "CLint scaled at 0.5 µM [mL/min/kg]": 22.7}

P = [2H]C1NC([2H])C(c2ccc(-n3cc4cccc(C(N)=O)c4n3)cc2)C([2H])C1[2H] (centres unmarked) [Example 7]
Q = [2H]c1c([2H])c(-n2nc3c(C(N)=O)cccc3c2[2H])c([2H])c([2H])c1[C@@H]1CCCNC1 [Example 15]
R = [2H]c1c([2H])c(-n2cc3cccc(C(N)=O)c3n2)c([2H])c([2H])c1C1CCCNC1 (centres unmarked) [Example 8]
query: In this exercise, place the 3 compounds in ascending sequence of their recorded CLint scaled at 0.5 µM. // ordering of labels required in reply
result: P, R, Q

----------
test: in vitro; details: rat, microsomes, 0.5 h, 0.5 µM, pH 7.4
endpoint-label: Percent Remaining (%) 30 min

{"compound": "[2H]C1NC([2H])C([2H])(c2ccc(-n3cc4cccc(C(N)=O)c4n3)cc2)C([2H])C1[2H] (centres unmarked)", "measured-number": 89.02}
{"compound": "[2H]C1([2H])NC([2H])([2H])C([2H])(c2ccc(-n3cc4cccc(C(N)=O)c4n3)cc2)C([2H])([2H])C1([2H])[2H] (racemic)", "measured-number": 82.19}
{"compound": "[2H]c1c([2H])c(-n2cc3cccc(C(N)=O)c3n2)c([2H])c([2H])c1C1CCCNC1 (centres unmarked)", "measured-number": 79.13}
{"compound": "[2H]C1NC([2H])C(c2ccc(-n3cc4cccc(C(N)=O)c4n3)cc2)C([2H])C1[2H] (centres unmarked)", "measured-number": 84.9}
{"compound": "[2H]c1c([2H])c(-n2cc3cccc(C(N)=O)c3n2)c([2H])c([2H])c1C1C([2H])NC([2H])C([2H])C1[2H] (centres unmarked)", "measured-number": 88.27}
{"compound": "[2H]c1c([2H])c(C2([2H])C([2H])([2H])NC([2H])([2H])C([2H])([2H])C2([2H])[2H])c([2H])c([2H])c1-n1cc2cccc(C(N)=O)c2n1 (centres unmarked)", "measured-number": 80.95}
{"compound": "[2H]c1c([2H])c(-n2nc3c(C(N)=O)cccc3c2[2H])c([2H])c([2H])c1[C@@H]1CCCNC1", "measured-number": 67.35}
{"compound": "[2H]c1c([2H])c(C2([2H])CCCNC2[2H])c([2H])c([2H])c1-n1cc2cccc(C(N)=O)c2n1 (centres unmarked)", "measured-number": 83.70}

----------
Experiment: in vitro
Conditions: rat, microsomes, 0.75 h, 0.5 µM, pH 7.4
Procedure: Buffer solutions were prepared as follows: • a. Buffer A: 0.1 M monobasic potassium phosphate buffer containing 1.0 mM EDTA. • b. Buffer B: 0.1 M dibasic potassium phosphate buffer containing 1.0 mM EDTA. • c. Buffer C: 0.1 M potassium phosphate buffer containing 1.0 mM EDTA was adjusted to pH 7.4 by titrating 700 mL of Buffer B with Buffer A while monitoring with a pH meter. • 2. An NADPH stock solution (6 mM) was prepared by dissolving NADPH into Buffer C. • 3. […]
endpoint-label: Percent Remaining (%) 45 min

{"molecule": "[2H]C1NC([2H])C([2H])(c2ccc(-n3cc4cccc(C(N)=O)c4n3)cc2)C([2H])C1[2H] (stereo not drawn)", "Percent Remaining (%) 45 min": 81.33}
{"molecule": "[2H]c1c([2H])c(C2([2H])CCCNC2[2H])c([2H])c([2H])c1-n1cc2cccc(C(N)=O)c2n1 (stereo not drawn)", "Percent Remaining (%) 45 min": 79.62}
{"molecule": "[2H]c1c([2H])c(-n2cc3cccc(C(N)=O)c3n2)c([2H])c([2H])c1C1CCCNC1 (stereo not drawn)", "Percent Remaining (%) 45 min": 80.74}

----------
experiment: in vitro; settings: rat, microsomes, pH 7.4, T1/2
endpoint-label: half-life at 0.5 µM (h)

{"compound": "[2H]c1c([2H])c(C2([2H])C([2H])([2H])NC([2H])([2H])C([2H])([2H])C2([2H])[2H])c([2H])c([2H])c1-n1cc2cccc(C(N)=O)c2n1 (stereo not shown)", "unit": "h", "measured-number": 1.83}
{"compound": "[2H]C1([2H])NC([2H])([2H])C([2H])(c2ccc(-n3cc4cccc(C(N)=O)c4n3)cc2)C([2H])([2H])C1([2H])[2H] (racemic)", "unit": "h", "measured-number": 1.82}
{"compound": "[2H]C1NC([2H])C(c2ccc(-n3cc4cccc(C(N)=O)c4n3)cc2)C([2H])C1[2H] (stereo not shown)", "unit": "h", "measured-number": 1.96}
{"compound": "[2H]c1c([2H])c(-n2cc3cccc(C(N)=O)c3n2)c([2H])c([2H])c1C1C([2H])NC([2H])C([2H])C1[2H] (stereo not shown)", "unit": "h", "measured-number": 2.2}
